Data provenance is paper PMC10804667.

target: (UniProt Z9CIZ5JT55)
QUANTITY_KIND: IC50 (µM)
Report as a plain number; the unit µM is understood.

GET /values?item= O=C(/C=C/c1ccc(O)c(O)c1)O[C@H](Cc1ccc(O)c(O)c1)C(=O)O &system= (UniProt Z9CIZ5JT55) returns IC50: 2200

---

biological target: VmFbpA; test: 6×His-based VmFbpA inhibition assay (pull-down assay) of Fe3+ binding; conditions: 60 min at 4°C, 20 mM Tris–HCl pH 8.0, 50 mM NaHCO3, 100 mM NaCl, read-out: IC50 to VmFbpA (inhibition of Fe^3+ binding)
QUANTITY_KIND: IC50
Could you give the number and then its unit, please?

>  <COMPOUND>
O=C(O)[C@H](O)Cc1ccc(O)c(O)c1 [DSS, danshensu]

>  <IC50>
4 mM

$$$$

Form field IC50, entry O=C(O)/C=C/c1ccc(O)c(O)c1 [CA, caffeic acid] : 6 mM
